ASSAYED_TARGET: rat α4β2 nAChR subtype (Rattus norvegicus (Rat), UniProt P09483+P12390)
Sequence (P09483 31-630): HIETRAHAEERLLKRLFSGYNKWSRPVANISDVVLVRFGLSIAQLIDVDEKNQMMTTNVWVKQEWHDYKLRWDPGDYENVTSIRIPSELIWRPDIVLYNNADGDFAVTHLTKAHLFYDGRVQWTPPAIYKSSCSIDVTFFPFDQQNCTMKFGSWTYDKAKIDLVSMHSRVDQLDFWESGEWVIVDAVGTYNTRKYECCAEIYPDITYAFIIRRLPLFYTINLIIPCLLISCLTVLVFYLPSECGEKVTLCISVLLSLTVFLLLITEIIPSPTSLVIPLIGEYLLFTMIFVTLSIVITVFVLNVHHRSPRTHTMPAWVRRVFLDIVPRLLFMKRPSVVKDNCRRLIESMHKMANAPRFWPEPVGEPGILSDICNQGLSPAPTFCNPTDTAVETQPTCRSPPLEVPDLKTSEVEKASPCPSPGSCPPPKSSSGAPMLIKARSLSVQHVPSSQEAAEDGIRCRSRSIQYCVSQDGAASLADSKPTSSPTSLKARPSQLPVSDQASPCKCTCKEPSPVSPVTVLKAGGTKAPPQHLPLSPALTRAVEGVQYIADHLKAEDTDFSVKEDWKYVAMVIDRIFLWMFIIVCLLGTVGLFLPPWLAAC
Sequence (P12390 25-500): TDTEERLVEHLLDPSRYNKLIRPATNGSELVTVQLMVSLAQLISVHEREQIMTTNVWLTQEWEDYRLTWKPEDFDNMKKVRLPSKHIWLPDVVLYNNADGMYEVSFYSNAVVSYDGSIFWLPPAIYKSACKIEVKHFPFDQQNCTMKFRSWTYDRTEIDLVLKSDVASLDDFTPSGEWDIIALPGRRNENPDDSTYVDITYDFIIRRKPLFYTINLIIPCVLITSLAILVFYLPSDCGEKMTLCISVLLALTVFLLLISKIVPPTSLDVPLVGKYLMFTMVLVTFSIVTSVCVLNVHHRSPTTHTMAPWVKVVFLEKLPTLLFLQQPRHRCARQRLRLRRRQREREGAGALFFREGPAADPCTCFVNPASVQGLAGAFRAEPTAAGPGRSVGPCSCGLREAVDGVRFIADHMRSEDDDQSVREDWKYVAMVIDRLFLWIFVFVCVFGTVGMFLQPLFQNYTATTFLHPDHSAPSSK
EXPERIMENT_SUMMARY: Radioligand ([3H]nicotine) binding at α4β2 nAChR, rat cortex membranes
MEASUREMENT_CONDITIONS: [3H]nicotine 5 nM, rat cortex membranes
pKi: −log10 of the molar value.

- COMPOUND: "Cc1oncc1C(=O)N1CC2CNCC(C2)C1"
  pKi: 7.19
- COMPOUND: "O=C(c1cc(Br)co1)N1CC2CNCC(C2)C1"
  pKi: 7.92
- COMPOUND: "O=C(c1ccno1)N1CC2CNCC(C2)C1"
  pKi: 7.28
- COMPOUND: "CC(=O)Nc1ccc(C(=O)N2CC3CNCC(C3)C2)o1"
  pKi: 7.06
- COMPOUND: "O=C(c1cc(-c2cc(F)cc(F)c2)co1)N1CC2CNCC2C1 (centres unmarked)"
  pKi: 7.27
- COMPOUND: "O=CNc1ccc(C(=O)N2CC3CNCC3C2)o1 (centres unmarked)"
  pKi: 7.28
- COMPOUND: "O=C(c1occc1F)N1CC2CNCC2C1 (centres unmarked)"
  pKi: 7.46
- COMPOUND: "Cc1nocc1C(=O)N1CC2CNCC2C1 (centres unmarked)"
  pKi: 7.62
- COMPOUND: "O=C(c1occc1Br)N1CC2CNCC(C2)C1"
  pKi: 7.10
- COMPOUND: "Cc1cc(C(=O)N2CC3CNCC3C2)no1 (centres unmarked)"
  pKi: 6.82
- COMPOUND: "O=C(c1cc(C(F)(F)F)co1)N1CC2CNCC2C1 (centres unmarked)"
  pKi: 6.49
- COMPOUND: "Cc1nocc1C(=O)N1CC2CNCC(C2)C1"
  pKi: 8.02
- COMPOUND: "C#Cc1ccc(C(=O)N2CC3CNCC(C3)C2)o1"
  pKi: 6.66
- COMPOUND: "O=C(c1ccc(Cl)o1)N1CC2CNCC2C1 (centres unmarked)"
  pKi: 7.48
- COMPOUND: "O=C(c1ccncc1)N1CC2CNCC2C1 (centres unmarked)"
  pKi: 7.59
- COMPOUND: "Cc1cc(C(F)(F)F)c(C(=O)N2CC3CNCC3C2)o1 (centres unmarked)"
  pKi: 6.00
- COMPOUND: "O=C(c1ccco1)N1CC2CNCC2C1 (centres unmarked)"
  pKi: 7.70
- COMPOUND: "O=C(c1cc(Br)no1)N1CC2CNCC(C2)C1"
  pKi: 8.23
- COMPOUND: "O=C(c1ccco1)N1CC2CNCC(C2)C1"
  pKi: 7.51
- COMPOUND: "O=C(c1ccno1)N1CC2CNCC2C1 (centres unmarked)"
  pKi: 7.37
- COMPOUND: "O=C(c1ccc(Br)o1)N1CC2CNCC2C1 (centres unmarked)"
  pKi: 7.27
- COMPOUND: "Cc1cc(C(=O)N2CC3CNCC3C2)on1 (centres unmarked)"
  pKi: 7.49
- COMPOUND: "N#Cc1coc(C(=O)N2CC3CNCC(C3)C2)c1"
  pKi: 7.57
